Just for reference, patent US11401286B2 is where these values come from.

target: PDE4D7 (Homo sapiens (Human)); conditions: read-out: PDE4D7 IC50; PDE4D7 without asterisk
Where a name gives a salt, the structure may show the parent alone.
Documented IC50 across a set of compounds

Task: Form field: IC50 recorded for CC(=O)Cc1ccc(Nc2nc(-c3cccc(Cl)c3)nc3c2CCC3)cc1 with PDE4D7 (Homo sapiens (Human)) (enter value)
Output: > 1000 nM

Task: Query IC50 on PDE4D7 (Homo sapiens (Human)) for CCOC(=O)Cc1ccc(Nc2cc(C3CC3)nc(-c3cccc(Cl)c3)n2)nc1
Output: > 1000 nM

Task: Value wanted: IC50 (PDE4D7 (Homo sapiens (Human))) of entry OCCc1ccc(Nc2nc(-c3cccc(Cl)c3)nc3c2SCC3)cc1
Output: < 1000 nM

Task: Form entry - test system: PDE4D7 (Homo sapiens (Human)); read-out: IC50; compound: OCCc1ccc(Nc2cc(N3CCNCC3)nc3c2CCC3)cc1 [Example 238, hydrochloride]
Output: > 1000 nM

Task: # query: IC50 | item OCCc1ccc(Nc2cc(-c3ccsc3)nc3c2CCC3)cc1 | system: PDE4D7 (Homo sapiens (Human))
Output: > 1000 nM

###

target: UniProtKB Q08499; settings: read-out: PDE4D7 IC50; PDE4D7 without asterisk
Counter-ions that a name gives are not always drawn.
measuredQuantity: IC50

Check out these entries, answers already filled in.
Task: Given the entry CCc1c(C)nc(-c2ccc(Cl)s2)nc1Nc1ccc(C2=C(O)CCC2=O)cc1 , report its measured IC50.
Output: > 1000 nM

Task: Consider the molecule OCCc1ccc(Nc2cc(-c3cccc(Cl)c3)nc3c2CCC3)cc1F [Example 113, hydrochloride] and give its measured IC50.
Output: > 1000 nM

More entries:
Task: Could you share which IC50 value was measured for OCc1ccc(Nc2cc(-c3cccc(Cl)c3)nc3c2CCC3)cc1 ?
Output: > 1000 nM

Task: Query (molecule): NC(=O)Cc1ccc(Nc2cc(-c3cc(F)cc(Cl)c3)nc3c2CCC3)cc1 [Example 152, hydrochloride] ; field requested: IC50
Output: > 1000 nM

Task: // IC50 lookup, key: Cc1ccc(Cc2nc(-c3cccc(Cl)c3)nc3c2CCC3)cc1
Output: > 1000 nM

Task: Form field: reported IC50 of NC(=O)Cc1ccc(Nc2cc(C(F)(F)F)nc(OC3CCCC3)n2)cc1
Output: > 1000 nM

Task: Report IC50 for NC(=O)Cc1ccc(Nc2cc(-c3cccc(Cl)c3)[n+]([O-])c3c2CCC3)cc1 please.
Output: > 1000 nM

Task: Recorded IC50 of Cc1cc(Nc2nc(-c3cccc(Cl)c3)nc3c2CCC3)ccc1CC#N , please.
Output: > 1000 nM

Task: # input molecule: CCc1cc(Cc2ccc(CC(=O)O)cc2)nc(-c2cccc(Cl)c2)n1 ; wanted: its IC50
Output: > 1000 nM

###

molecular target: PDE4D7 (Homo sapiens (Human), UniProt Q08499); settings: read-out: PDE4D7 IC50; PDE4D7 without asterisk
Sequence (Q08499 other isoform, or with tags, fused parts or gaps): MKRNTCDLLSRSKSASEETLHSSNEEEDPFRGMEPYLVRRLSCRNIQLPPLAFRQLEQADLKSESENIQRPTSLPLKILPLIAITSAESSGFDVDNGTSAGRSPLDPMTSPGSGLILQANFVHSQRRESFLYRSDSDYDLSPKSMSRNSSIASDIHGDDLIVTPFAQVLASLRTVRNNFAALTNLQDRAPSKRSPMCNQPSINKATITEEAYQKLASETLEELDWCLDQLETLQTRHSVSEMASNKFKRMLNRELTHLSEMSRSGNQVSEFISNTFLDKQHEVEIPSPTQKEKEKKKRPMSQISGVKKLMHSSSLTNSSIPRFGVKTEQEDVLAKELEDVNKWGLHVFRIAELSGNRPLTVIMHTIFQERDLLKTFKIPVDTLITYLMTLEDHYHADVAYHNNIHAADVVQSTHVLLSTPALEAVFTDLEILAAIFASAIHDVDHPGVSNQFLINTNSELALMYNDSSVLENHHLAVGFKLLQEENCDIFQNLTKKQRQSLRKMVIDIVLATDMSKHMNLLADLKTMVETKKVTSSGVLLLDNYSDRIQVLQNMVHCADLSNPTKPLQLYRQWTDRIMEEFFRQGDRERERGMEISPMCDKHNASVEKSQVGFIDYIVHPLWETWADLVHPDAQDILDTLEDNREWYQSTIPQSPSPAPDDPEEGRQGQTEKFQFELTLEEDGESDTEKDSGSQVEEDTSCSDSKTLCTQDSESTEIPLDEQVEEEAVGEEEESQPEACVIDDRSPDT
pIC50: −log10 of the molar value. Structures can show the parent of a compound that is named as a salt.
measuredQuantity: pIC50

The following molecules have reported results that may help.
Task: Which pIC50 is listed for OCCc1ccc(Nc2nc(C3CCCC3)nc3c2SCCC3)cc1 ?
Output: > 6.00

Task: Bench note: what pIC50 did O=C(Cc1ccc(Nc2cc(C3CC3)nc(-c3cccc(Cl)c3)n2)nc1)NCCO show?
Output: > 6.00

Continuing:
Task: Which measured pIC50 value corresponds to NC(=O)Cc1ccc(Nc2nc(-c3cccc(Cl)c3)nc3c2SCC3)cc1 ?
Output: > 6.00

Task: Record request: pIC50 value, item CC(C)(CO)c1ccc(Cc2cc(-c3cccc(Cl)c3)nc3c2CCC3)cc1 [Example 128, hydrochloride]
Output: < 6.00

Task: Look up pIC50 for this molecule: CCc1c(C)nc(-c2ccc(Cl)s2)nc1Nc1ccc(Cn2cccn2)cc1
Output: < 6.00

Task: Query: pIC50; subject: CCc1c(C)nc(-c2ccc(Cl)s2)nc1Nc1ccc(Cc2nc(C(N)=O)c[nH]2)cc1
Output: < 6.00

Task: # lookup: pIC50 of OCCc1ccc(Nc2cc(-c3ccc[nH]3)nc3c2CCC3)cc1 [Example 132, hydrochloride]
Output: < 6.00

Task: Give its pIC50 value. Item: CCc1c(C)nc(-c2ccc(Cl)s2)nc1Nc1ccc2c(c1)CS(=O)(=O)C2
Output: < 6.00

###

Here the recorded IC50 is given for each entry.
molecular target: PDE4D7 (Homo sapiens (Human), UniProt Q08499); details: read-out: PDE4D7 IC50; PDE4D7 without asterisk
Where a name gives a salt, the structure may show the parent alone.

Task: Which measured IC50 value corresponds to CCCNC(=O)Cc1ccc(Nc2nc(-c3ccc(Cl)s3)nc(C)c2CC)cc1 ?
Output: < 1000 nM

Task: Tell me the measured IC50 of CN(C(N)=O)c1ccc(Nc2cc(-c3cccc(Cl)c3)nc3c2CCC3)cc1 [Example 129, hydrochloride] , please.
Output: > 1000 nM

Task: IC50 lookup needed for OCCc1ccc(Nc2cc(OC3CCCC3)nc3c2CCC3)cc1 [Example 257, hydrochloride] , thanks.
Output: > 1000 nM

Next:
Task: # input molecule: NC(=O)Cc1ccc(Nc2cc(-c3ccsc3)nc3c2CCC3)cc1 ; wanted: its IC50
Output: > 1000 nM

Task: # IC50 lookup, item CCc1cc(Nc2ccc(CCO)cc2)nc(C2CCCC2)n1
Output: < 1000 nM

Task: What value of IC50 has been reported for the following molecule? NC(=O)Cc1ccc(Nc2nc(OC3CCCC3)nc3c2CCC3)cc1
Output: > 1000 nM

Task: Query (molecule): NC(=O)Cc1ccc(Nc2cc(-c3cncc(Cl)c3)nc3c2CCC3)cc1 [Example 134, hydrochloride] ; field requested: IC50
Output: > 1000 nM

Task: Would you mind telling me what IC50 value was observed for NC(=O)Cc1ccc(Cc2cc(C(F)(F)F)nc(-c3cccc(Cl)c3)n2)cc1 ?
Output: > 1000 nM

Task: I'd like to know its IC50. The molecule in question is CCc1cc(Cc2ccc(CC(=O)O)cc2)nc(C2CCCC2)n1
Output: > 1000 nM

###

Entries and their measured IC50 follow.
biological target: UniProt:Q08499; conditions: read-out: PDE4D7 IC50
Counter-ions that a name gives are not always drawn.

Answered examples (4):
Task: Look up IC50 for this compound: C[C@@H]1CN(c2cc(Nc3ccc(CC(N)=O)cc3)c3c(n2)CCC3)CCN1 [Example 255, hydrochloride]
Output: > 1000 nM

Task: Form field: reported IC50 of O=C(O)COc1ccc(Nc2cc(-c3cccc(Cl)c3)nc3c2CCC3)cc1
Output: > 1000 nM

Task: I have this compound here, CCc1cc(Oc2ccc(CCO)cc2)nc(-c2cccc(Cl)c2)n1 , and I need its recorded IC50.
Output: < 1000 nM

Task: Request the reported IC50 associated with CCc1nc(Nc2ccc(CCCO)cc2)nc(-c2cccc(Cl)c2)n1
Output: < 1000 nM

Turning now to a further compound:
Task: Value lookup for IC50; key = CCc1cc(Nc2ccc(CCO)cc2)nc(-c2cccc(Cl)c2)n1
Output: < 1000 nM

###

pIC50: recorded values
target: PDE4D7 (Homo sapiens (Human)); conditions: read-out: PDE4D7 IC50; PDE4D7 without asterisk
pIC50: −log10 of the molar value. Where a name gives a salt, the structure may show the parent alone.

Examples with their reported pIC50 follow.
Task: Suppose we examine the molecule O=C(O)Cc1ccc(Nc2cc(C3CC3)nc(-c3ccc(Cl)s3)n2)cc1 ; what pIC50 value has been reported?
Output: < 6.00

Task: Recorded pIC50 of FC(F)(F)c1cc(Cc2ccc(Cn3cc(Cl)cn3)cc2)nc(-c2cccc(Cl)c2)n1 , please.
Output: < 6.00

Task: What pIC50 value was documented for this molecule, O=S1(=O)CCCc2nc(-c3ccccc3)nc(Nc3ccc(CCO)cc3)c21 ?
Output: > 6.00

Others:
Task: Which value of pIC50 has been reported for OCCCc1ccc(Nc2cc(-c3cccc(Cl)c3)nc3c2CCC3)cc1 [Example 85, hydrochloride] in the records?
Output: > 6.00

Task: pIC50 for CCc1nc(Nc2ccc(C#N)cc2)nc(-c2cccc(Cl)c2)n1 ?
Output: > 6.00

Task: Return reported pIC50; argument: OC[C@H]1CC[C@H](Nc2cc(-c3cccc(Cl)c3)nc3c2CCC3)CC1 [Example 93, hydrochloride]
Output: < 6.00

Task: # query: pIC50 of entry CCc1c(C)nc(-c2ccc(Cl)s2)nc1Nc1ccc(CC(=O)NC#N)cc1
Output: < 6.00

Task: Dear colleague, I am looking for the recorded pIC50 of the following molecule: CN(C)C(=O)Cc1ccc(Nc2cc(-c3cccc(Cl)c3)nc3c2CCC3)cc1 [Example 121, hydrochloride]
Output: > 6.00
